- assay-protocol: Metabolic stability in dog liver microsomes assessed as half life
- Format: ADME, Canis lupus familiaris, Microsome
metric-name: half-life (h)
One number for each entry, in h.

What half-life value was documented for this molecule, COC(=O)N[C@H](C(=O)N[C@@H](Cc1ccccc1)[C@H](CN(Cc1ccc(-c2ccccn2)cc1)NC(=O)[C@@H](NC(=O)OC)C(C)(C)C)OC(=O)OC(OC(=O)[C@@H](N)C(C)C)C(C)C)C(C)(C)C (stereo in doubt; 3s) ? 4.82

###

- assay-protocol: Volume of distribution at steady state in Sprague-Dawley rat at 1 mg/kg,iv measured upto 24 hrs by UPLC-MS/MS analysis
- Assay type: ADME, organism-based
- study-conditions: in vivo, read-out: Vdss
metric-name: Vd
Param answer (str): number followed by unit.

What Vd value was documented for this compound, `COC(=O)N[C@H](C(=O)N[C@@H](Cc1ccccc1)[C@@H](O)CN(Cc1ccc(-c2ccccn2)cc1)NC(=O)[C@@H](NC(=O)OC)C(C)(C)C)C(C)(C)C` ? 1.5 L/kg
